# TARGET: T1, Tau fragment 19-33 (human, UniProt P10636-8 19-33, not fully specified)
# T1 construct: range 19-33
# T1 peptide (looked up): GLGDRKDQGGYTMHQ
# METHOD_DESCRIPTION: ELISA on Tau 15-mer peptides, O.D.; conditions of this panel not given
Where no end group is shown, it is not given here.
ENDPOINT: binding result

123E9-A1 (antibody, mouse IgG2a, V domains shown) VH: EVQLQQSGPELVKPGASVKMSCKASGYTFTDYYMKWVKQSHGKSLEWIGDIDPNNGGTSYNQKFKGKATLTVDKSSSTAYMQLNSLTSEDSAVYYCARSAGFGDSFSFWGLGTLVTVSA VL: DVLMTQTPLSLPVSLGDQASISCRSSQSIVHSNGNTYLEWYLQKPGQSPKLLIYKVSNRFSGVPDRFSGSGSGTDFTLKISRVEAEDLGFYYCFQGSHVPPTFGGGTKLEIK    binds
